Test system: MDA-MB-231 breast
procedure.summary: NCI-60 one-dose screen, 48 h
condition.parameters: 10 µM unless noted
This is part of a sample that, as a whole, favours compounds with a hit. Of some 83,000 tested, about 20% had one in any assay. Active and inactive are the calls of the source. The calls were made as follows: active = growth percent below 10; inactive = the rest.
// one of true (1) = active, false (0) = inactive, no free text

# count of solved cases: 3
{"compound": "CC(=O)OC[C@@]1(C)C2CC[C@]3(C)C(CC=C4C5CC(C)(C)CC[C@]5(C(=O)Nc5ccc(F)cc5)CC[C@]43C)[C@@]2(C)C[C@@H](OC(C)=O)[C@@H]1OC(C)=O (some centres undefined)", "tested.system": "MDA-MB-231 breast", "qualitative.label": "false (0)"}
{"compound": "O=C(N=Nc1c(O)[nH]c2ccc([N+](=O)[O-])cc12)c1ccc2nc(-c3ccccc3)[nH]c2c1", "tested.system": "MDA-MB-231 breast", "qualitative.label": "false (0)"}
{"compound": "Nc1cccc(SCc2cc3ccccc3[nH]c2=O)c1", "tested.system": "MDA-MB-231 breast", "qualitative.label": "false (0)"}

Req: Give the logged outcome of this assay for the following compound: CCCCSc1nc(NCCc2c[nH]c3ccccc23)c(C#N)c(-c2ccc(OC)cc2)n1
Resp: false (0)

Req: // return assay outcome for N/C(=N\N=C\c1ccc([N+](=O)[O-])cc1)c1c(N)nc(=S)[nH]c1-c1ccc(Cl)cc1Cl
Resp: false (0)

Req: Record request — test call for Cc1occc1C(=O)NN1C(=O)/C(=C/C=C/c2ccc([N+](=O)[O-])o2)SC1=S
Resp: true (1)

Req: Field: outcome | Entry: CCCCCCCS(=O)(=O)N1CCCC(C(=O)Nc2nc3ccc(NC(=O)c4ccc(F)c(OC)c4F)cc3s2)C1 (centres undefined)
Resp: false (0)

Req: Can you look up the reported call for CN(C)c1nc(NCCNS(=O)(=O)c2ccc(C(=O)/C=C/c3ccc(Cl)cc3)cc2)nc(Nc2ccc(F)cc2)n1 for me?
Resp: true (1)

Req: Please share the test call associated with Nc1nc(C(F)(F)F)cs1 .
Resp: false (0)

Req: Could you kindly confirm the outcome this assay logged for COc1ccc2[nH]c(O)c(N=NC(=O)Cn3c(-c4ccccc4)nc4cc(C)ccc43)c2c1 ?
Resp: true (1)

Req: # fetch the recorded call for O=C1NC(=O)/C(=C/c2ccccc2OCc2cc3ccccc3nc2Cl)S1 here
Resp: false (0)

Req: Tell me the recorded outcome of this test for CCOC(=O)C1=C(N)N(c2ccccc2)C2=C(C(=O)CC(C)(C)C2)C1c1ccccc1Cl (centres undefined) .
Resp: false (0)

Req: Answer briefly: the call reported for CCOc1ccc(C(=O)NC(=S)Nc2ccc(S(N)(=O)=O)cc2)cc1 in this assay.
Resp: false (0)
